Target: Autotaxin (ENPP2, NPP2) (Homo sapiens, UniProt Q13822 Q13822:36-863)
Test: inhibition; pNP-TMP 1 mM, autotaxin 0.3 nM, 37 C 24 h, solution A
experimental_readout: IC50 (nM)
Write the value in nM as a bare number.

Lookup: Endpoint output: IC50 of SEQ 4 aptamer (ssRNA, 2'-F pyrimidines, 2'-OH purines) RNA: GGGACCGCACUCUAAACGCUCUGAGGGAAACAGGUUUUGCUCCUCGGAGCGUGGACGAAGUGAGACGUAUCCG . Value?
Found: 7
